# Target desc: AGTR1 (Homo sapiens, UniProt P30556)
# Construct: host or cells: Pathunter CHO-K1 AGTR1 β-arrestin cell line (CHO-K1)
# Sequence (P30556 whole entry): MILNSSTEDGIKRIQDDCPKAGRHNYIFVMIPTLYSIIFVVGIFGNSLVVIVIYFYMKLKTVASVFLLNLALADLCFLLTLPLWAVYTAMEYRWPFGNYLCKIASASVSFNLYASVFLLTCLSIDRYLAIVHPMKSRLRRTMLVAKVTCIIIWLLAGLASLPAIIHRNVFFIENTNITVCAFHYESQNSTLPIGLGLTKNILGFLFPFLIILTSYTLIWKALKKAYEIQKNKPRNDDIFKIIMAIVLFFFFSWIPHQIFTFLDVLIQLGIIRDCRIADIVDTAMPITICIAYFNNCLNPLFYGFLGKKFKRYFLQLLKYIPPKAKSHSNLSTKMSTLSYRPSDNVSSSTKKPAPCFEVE
# Experimental details: DiscoveRx β-arrestin2 recruitment assay (enzyme complementation, Pathunter CHO-K1 AGTR1 β-arrestin cell line)
# Type: cell-based
# Assay context: DiscoveRx β-arrestin2 recruitment, maximal response
Quick rule for you: DiscoveRx β-arrestin2 Ymax (%) at 30% or higher means class 1, lower means class 0.

The following compounds have reported results that may help.
1. CCCCC(=O)N(Cc1ccc(-c2cc(-c3ccccc3)ccc2-c2nn[nH]n2)cc1)C1(C(=O)O)Cc2ccccc2C1 : class 1
2. CCc1nc2c(C)cc(C)nc2n1Cc1ccc(-c2cc(C3CCCOC3)ccc2-c2nn[nH]n2)cc1 (stereo not drawn) : class 1
3. CCCCc1ncc(C(=O)Nc2nc(C)cs2)n1Cc1ccc(-c2cc(-c3ccccc3)ccc2-c2nn[nH]n2)cc1 : class 0

Q: hey, is DiscoveRx β-arrestin2 Ymax (%) for this one >= 30%? CCCCC(=O)N(Cc1ccc(-c2cc(-c3ccccc3)ccc2-c2nn[nH]n2)cc1)C1(C(=O)O)CCCC1
A: class 1

Q: Thanks! And CCCC1=NC2(CCOC2)C(=O)N1Cc1ccc(-c2cc(-c3cccc(C)c3)ccc2-c2nnn[nH]2)cc1 (single isomer, unassigned) [Example 159] ?
A: class 1

Provenance of the data: patent US12037324B2
